Target: Estrogen receptor beta (Homo sapiens)
Sequence (Q92731 whole entry): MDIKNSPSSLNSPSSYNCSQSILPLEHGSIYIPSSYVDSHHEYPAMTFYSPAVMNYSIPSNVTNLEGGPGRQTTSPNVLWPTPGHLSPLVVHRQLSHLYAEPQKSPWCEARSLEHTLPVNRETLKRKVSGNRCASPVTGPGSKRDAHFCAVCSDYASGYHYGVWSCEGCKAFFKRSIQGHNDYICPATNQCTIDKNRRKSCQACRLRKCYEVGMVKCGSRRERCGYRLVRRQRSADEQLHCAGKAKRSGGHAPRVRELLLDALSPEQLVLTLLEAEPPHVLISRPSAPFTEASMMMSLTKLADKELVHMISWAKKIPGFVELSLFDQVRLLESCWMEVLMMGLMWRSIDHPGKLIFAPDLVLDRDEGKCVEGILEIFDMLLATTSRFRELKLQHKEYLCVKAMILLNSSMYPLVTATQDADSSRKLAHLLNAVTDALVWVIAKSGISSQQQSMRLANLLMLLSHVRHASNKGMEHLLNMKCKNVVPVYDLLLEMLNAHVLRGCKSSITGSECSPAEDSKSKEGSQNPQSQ
EXPERIMENTAL ENDPOINT: pIC50
Numbers only, as −log10 of the molar value.

{"columns": ["COMPOUND STRUCTURE STRING", "STUDY TARGET", "pIC50"],
 "data": [
  ["CCc1cc(O)cc2c1C(=O)[C@@H](c1ccc(O)cc1)[C@@H](c1ccc(OCCN3CCCCC3)cc1)O2", "Estrogen receptor beta (Homo sapiens)", 6.82]
]}

Count: 2. Required value per item: pIC50.
1. CC(C)[C@@H]1C(=O)c2ccc(O)cc2O[C@@H]1c1ccc(OCCN2CCCCC2)cc1
2. C[C@@H]1C(=O)c2ccc(O)cc2O[C@@H]1c1ccc(OCCN2CCCCC2)cc1

Response:
1. 5.92
2. 5.25
